Listing: pKi of selected compounds
- measurementTarget: human emopamil binding protein and human 7-dehydrocholesterol reductase co-expressing cells (hEBP-DHCR7 membrane) (Homo sapiens (Human), UniProt Q15125)
- Sequence (Q15125 whole entry): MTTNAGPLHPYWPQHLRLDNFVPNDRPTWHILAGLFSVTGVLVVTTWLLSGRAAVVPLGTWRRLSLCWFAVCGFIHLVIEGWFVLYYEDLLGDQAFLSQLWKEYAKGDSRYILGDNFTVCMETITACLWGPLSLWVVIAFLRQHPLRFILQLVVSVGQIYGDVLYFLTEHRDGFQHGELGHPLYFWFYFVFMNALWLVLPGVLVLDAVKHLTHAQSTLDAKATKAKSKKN
# pKi: negative log10 of molar concentration; output just the value

Some solved cases for reference:
- O=S1(=O)CC2(CCN([C@H]3CCC[C@@H](c4ccc(C(F)(F)F)nc4)C3)C2)C1 (single isomer, unassigned) [54C*]: 6.46
- CC(C)n1nc(-c2cccc(C(F)(F)F)n2)cc1[C@@H]1CC[C@@H](N2CCC3(CC2)CS(=O)(=O)C3)C1 (single isomer, unassigned) [46A*]: 7.51

Let us move to another entry and its pKi.
pKi reading for CC(C)n1nc(-c2cccc(C(F)(F)F)n2)cc1[C@@H]1CC[C@H](N2CCC3(CC2)CS(=O)(=O)C3)C1 (single isomer, unassigned) [46B*] : 7.46
